# TARGET OR SYSTEM: T1, recombinant cynomolgus CD33 protein (NovoProtein) (cynomolgus)
# T1 construct: Bought protein; also called cyno CD33
# T1 sequence (chain, as listed by the source limits assumed): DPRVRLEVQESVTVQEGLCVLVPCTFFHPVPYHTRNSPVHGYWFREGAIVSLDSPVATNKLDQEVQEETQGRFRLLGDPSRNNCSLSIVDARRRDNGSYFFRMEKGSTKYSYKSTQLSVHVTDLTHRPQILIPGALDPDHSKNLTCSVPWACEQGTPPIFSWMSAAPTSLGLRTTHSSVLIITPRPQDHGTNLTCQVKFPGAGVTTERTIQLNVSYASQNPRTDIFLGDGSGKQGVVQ
# ASSAY SUMMARY: ELISA, plate coated with recombinant CD33
QUANTITY NAME: EC50 (nM)

- BINDER: "anti-CD33 antibody 6C7H54 (antibody, IgG1, V domains shown, VH/VL only; also called 6C7H54 IgG1; 6C754) VH: EVQLVESGGGLVQPGGSLRLSCAGSGFTFSNYEMNWVRQAPGKGLEWVAEIRLKSNNYVTNYAASVKGRFTISRDDSKNSVYLQMNSLKTEDTGVYYCTRAGYYVPFAYWGQGTLVTVSS VL: QLMLTQSPSASASLGASVKLTCTLSSQHSTYTIEWYQQQPGKGPRYLMELKKEGSHSTGDGIPDRFSGSSSGAERYLTISSLQSEDEADYYCGVGHTIKEQFVYVFGGGTKLTVL"
  ENDPOINT VALUE: 0.57
- BINDER: "anti-CD33 antibody 6C7H48 (antibody, V domains shown, VH/VL only) VH: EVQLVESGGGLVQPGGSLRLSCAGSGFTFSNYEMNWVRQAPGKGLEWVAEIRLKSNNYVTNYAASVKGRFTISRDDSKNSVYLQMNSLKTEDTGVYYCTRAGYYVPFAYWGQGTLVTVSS VL: QPMLTQSPSASASLGASVKLTCTLSSQHSTYTIEWYQQQPGKGPRYLMELKKEGSHSTGDGIPDRFSGSSSGAERYLTISSLQSEDEADYYCGVGLTIKEQFVYVFGGGTKLTVL"
  ENDPOINT VALUE: 1.19

These measurements were taken from patent US20250270319A1.
